tested on: Enterococcus hirae ATCC 10541
property: MIC (µg/mL)
Report as a plain number; the unit µg/mL is understood.

Here's what some known entries look like.
{"smiles notation": "CCCCCCCCCCNc1cc(C(F)(F)F)nc(-c2ccccn2)n1", "MIC, µg/mL": 7.5}
{"smiles notation": "CCCCCCCNc1cc(C(C)C)nc(-c2ccccn2)n1", "MIC, µg/mL": 15}
{"smiles notation": "CCCCCCCCCCNc1cc(C(C)C)nc(-c2ccccn2)n1", "MIC, µg/mL": 3.75}

Could you now look at the following molecule, please?
Would you mind telling me what MIC value was observed for CCCCCCCCCCCCCCCCNc1cc(C(F)(F)F)nc(-c2ccccn2)n1 ?
30

====

tested on: Staphylococcus hominis DMS 20328; experiment: Minimum inhibitory concentration (MIC) in microtitre plates; format: cell-based; conditions: Table 7; 48 hours at 37° C.; MIC = ≦20% growth compared to control
property: Minimum inhibitory concentration (MIC) S. hominis (µg/mL)
Write down the numeric answer in µg/mL and omit the unit.

{"compound": "CC(C)c1cc(NC2CCCCC2)nc(-c2ccccn2)n1 [compound 50]", "endpoint result": 15}
{"compound": "Cc1nc(-c2ccccn2)nc(NCCCCCCCCCN)c1C(C)C [compound 66]", "endpoint result": 3.75}

State its Minimum inhibitory concentration (MIC) S. hominis on Staphylococcus hominis DMS 20328: CCCCCCCCNc1cc(C(C)(C)C)nc(-c2ccccn2)n1 [compound 57]
3.75

# get_value(readout= Minimum inhibitory concentration (MIC) S. hominis, system= Staphylococcus hominis DMS 20328) for CCCCCCCCCNc1nc(-c2ccccn2)nc(C)c1CC [compound 10]
5

Provide the documented Minimum inhibitory concentration (MIC) S. hominis with Staphylococcus hominis DMS 20328 as the system for CCCCCCCCNc1cc(C(F)(F)F)nc(-c2ccccn2)n1 [compound 33]
2.5

====

Examples of compounds with documented Minimum inhibitory concentration (MIC) S. hominis follow.
Tested on: Staphylococcus hominis DMS 20328
Assay: Minimum inhibitory concentration (MIC) in microtitre plates
Type: cell-based
Conditions: Table 7; 48 hours at 37° C.; MIC = ≦20% growth compared to control
Description: Determination of the Minimum Inhibitory Concentration (MIC Value) in Microtitre Plates Casein-soybean flour-peptone broth for preparation of pre-cultures of test bacteria and yeast. Mycological slant agar for the pre-culture of moulds Examples of Test Organisms: […] After incubation, the growth is determined on the basis of the turbidity of the test batches (optical density) at 620 nm in a microplate reader. […]
Supply the numeric figure in µg/mL, leaving out any unit text.

Guide cases for Minimum inhibitory concentration (MIC) S. hominis, answers given:
{"compound": "CCCCCCCCCCNc1nc(-c2ccccn2)nc(C)c1CC [compound 11]", "assay target": "Staphylococcus hominis DMS 20328", "endpoint result": 3.75}
{"compound": "CC(C)(C)c1cc(NCCCCCCCCCN)nc(-c2ccccn2)n1 [compound 54]", "assay target": "Staphylococcus hominis DMS 20328", "endpoint result": 30}
{"compound": "CC(C)c1cc(NCc2ccccc2)nc(-c2ccccn2)n1 [compound 97]", "assay target": "Staphylococcus hominis DMS 20328", "endpoint result": 15}
{"compound": "CCCCCCCNc1cc(C(F)(F)F)nc(-c2ccccn2)n1 [compound 32]", "assay target": "Staphylococcus hominis DMS 20328", "endpoint result": 3.75}
{"compound": "CCCCCCCCCCCCNc1cc(C(C)C)nc(-c2ccccn2)n1 [compound 48]", "assay target": "Staphylococcus hominis DMS 20328", "endpoint result": 3.75}

Given the entry CCCCCCCCCCCCCCCNc1cc(C(C)C)nc(-c2ccccn2)n1 [compound 99] , report its measured Minimum inhibitory concentration (MIC) S. hominis.
15

====

tested on: S. aureus ATCC 6538; experiment: Determination of the bactericidal activity (logarithmic reduction in organism count); type: cell-based, Staphylococcus aureus; settings: contact for 30 minutes at a substance concentration of 120 μg/mL
property: Logarithmic reduction in organism count, S. aureus ATCC 6538 (log)
Please respond with the number in log and leave the unit unwritten.

{"smiles notation": "CCc1c(C)nc(-c2ccccn2)nc1NCCCCCCCCCCCCN", "endpoint result": 2}

Would you mind telling me what Logarithmic reduction in organism count, S. aureus ATCC 6538 value was observed for CCCCCCCCCCCCCCCNc1nc(-c2ccccn2)nc(C)c1CC ?
2

====

tested on: Escherichia coli NCTC 8196; experiment: Minimum inhibitory concentration (MIC) in microtitre plates; assay type: cell-based; conditions: Table 8; * = significant inhibition of growth, but not complete inhibition
property: Minimum inhibitory concentration (MIC) E. coli NCTC 8196

Here's what some known entries look like.
{"compound": "CCCCCCCCNc1cc(C)nc(-c2ccccn2)n1 [compound 21]", "assay target": "Escherichia coli NCTC 8196", "endpoint result": "120 µg/mL"}
{"compound": "CCCCCCCCCNc1cc(C)nc(-c2ccccn2)n1 [compound 22]", "assay target": "Escherichia coli NCTC 8196", "endpoint result": ">60 µg/mL"}
{"compound": "CCCCCCCCCCCCCCCNc1nc(-c2ccccn2)nc(C)c1CC [compound 90]", "assay target": "Escherichia coli NCTC 8196", "endpoint result": ">60 µg/mL"}

Sample CCCCCCCCCCCNc1cc(C(C)C)nc(-c2ccccn2)n1 [compound 98] — what was its Minimum inhibitory concentration (MIC) E. coli NCTC 8196?
120 µg/mL

Item CCCCCCCCNc1cc(C(F)(F)F)nc(-c2ccccn2)n1 [compound 33] has what recorded Minimum inhibitory concentration (MIC) E. coli NCTC 8196?
>60 µg/mL

Reported Minimum inhibitory concentration (MIC) E. coli NCTC 8196, compound Cc1nc(-c2ccccn2)nc(NCCCCCCCCN)c1C(C)C [compound 65] : ____
>60 µg/mL

Bench note: what Minimum inhibitory concentration (MIC) E. coli NCTC 8196 did CCCCCCCCCCCCNc1cc(C)nc(-c2ccccn2)n1 [compound 24] show?
>60 µg/mL

Any idea what Minimum inhibitory concentration (MIC) E. coli NCTC 8196 was measured for CC(C)c1cc(NCCCCCCCCCCCCN)nc(-c2ccccn2)n1 [compound 43] ?
>60 µg/mL

Recorded Minimum inhibitory concentration (MIC) E. coli NCTC 8196 for CCCCCCCCCCNc1cc(CCOC)nc(-c2ccccn2)n1 [compound 83] , please?
>60 µg/mL

====

test system: Escherichia coli NCTC 8196; test: Minimum inhibitory concentration (MIC) in microtitre plates; format: cell-based; details: Escherichia coli, NCTC8196; Table 7; 48 hours at 37° C.; MIC = ≦20% growth compared to control; read-out: Minimum inhibitory concentration (MIC) E. coli
property: MIC

The cases that follow already have their MIC on record.
{"smiles notation": "CCCCCCCCCCNc1cc(C(C)C)nc(-c2ccccn2)n1", "endpoint result": "> 80 mg/L"}
{"smiles notation": "CCCCCCCCCCCCNc1cc(C(F)(F)F)nc(-c2ccccn2)n1", "endpoint result": "> 120 mg/L"}
{"smiles notation": "CCCCCCCNc1cc(C(C)C)nc(-c2ccccn2)n1", "endpoint result": "> 120 mg/L"}

Write down the reported MIC of CCCCCCCCCCNc1cc(C(F)(F)F)nc(-c2ccccn2)n1 , test system: Escherichia coli NCTC 8196.
> 120 mg/L

For the record CCCCCCCCCCCCCCCCNc1cc(C(F)(F)F)nc(-c2ccccn2)n1 , what value of MIC is listed for Escherichia coli NCTC 8196?
> 120 mg/L

====

tested on: S. aureus ATCC 6538; experiment: Determination of the bactericidal activity (logarithmic reduction in organism count); assay type: cell-based, Staphylococcus aureus; settings: contact for 30 minutes at a substance concentration of 120 μg/mL
property: Logarithmic reduction in organism count, S. aureus ATCC 6538

Worked examples follow.
{"compound": "CCCCCCCCCCCNc1nc(-c2ccccn2)nc(C)c1CC [Compound of formula 89]", "endpoint result": "2 log"}
{"compound": "CCCCCCCCCCNc1cc(C(F)(F)F)nc(-c2ccccn2)n1 [Compound of formula 35]", "endpoint result": "<1 log"}
{"compound": "CC(C)c1cc(NCCCCCCCCCN)nc(-c2ccccn2)n1 [Compound of formula 42]", "endpoint result": "2 log"}

# lookup: Logarithmic reduction in organism count, S. aureus ATCC 6538 of CCCCCCCCCCCCCCCNc1cc(C)nc(-c2ccccn2)n1 [Compound of formula 93]
2 log

Given the entry CCCCCCCCCCCCNc1nc(-c2ccccn2)nc(C)c1CC [Compound of formula 12] , report its measured Logarithmic reduction in organism count, S. aureus ATCC 6538.
1–2 log

I'd like to know its Logarithmic reduction in organism count, S. aureus ATCC 6538. The compound in question is CC(C)c1cc(NCCCCCCCCCCCCN)nc(-c2ccccn2)n1 [Compound of formula 43]
3 log

# get_value(readout='Logarithmic reduction in organism count, S. aureus ATCC 6538', item= CCCCCCCCCCNc1cc(C)nc(-c2ccccn2)n1 [Compound of formula 23] )
3 log

Just for reference, patent US7015228B2 is where these values come from.
